Tested on: chymotrypsin
Test: Susceptibility to proteolysis by chymotrypsin, loss of intact peptide by MALDI-TOF MS
Assay type: in vitro ADME
Conditions: isolated enzyme chymotrypsin, pH 7
readout.kind: remaining at 0.5 h, 500 μg/ml

Look up and state reported remaining at 0.5 h, 500 μg/ml for Ac-VLESFKVSFLSALEEYTKKLNTQ-NH2 [A10, reference compound] < 5%

Reference source: patent US20140213502A1
